Hello, the source for this data is patent US5840722A, in case you need it.

Biological target: ETB receptor (Cavia porcellus)
Construct: Guinea pig cerebella were homogenized in a Potter-Elvejhem homogenizer; from tissue; host or cells: guinea pig cerebellum (membranes)
Sequence (H0VTF3 27-415): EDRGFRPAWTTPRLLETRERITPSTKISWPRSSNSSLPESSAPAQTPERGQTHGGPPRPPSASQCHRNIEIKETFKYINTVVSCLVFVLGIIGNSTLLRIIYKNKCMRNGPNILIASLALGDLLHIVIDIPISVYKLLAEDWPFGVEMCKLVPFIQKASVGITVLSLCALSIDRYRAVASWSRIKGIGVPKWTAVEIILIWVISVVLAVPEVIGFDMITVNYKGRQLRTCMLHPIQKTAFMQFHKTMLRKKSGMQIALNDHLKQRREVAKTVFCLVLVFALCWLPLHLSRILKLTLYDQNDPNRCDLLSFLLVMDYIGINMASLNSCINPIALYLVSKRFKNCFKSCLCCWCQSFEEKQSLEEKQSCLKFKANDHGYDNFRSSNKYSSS
Test: Receptor-binding studies, ETB receptor binding assay ([125I]-RZ3, guinea pig cerebellar membranes)
Conditions: guinea pig cerebellar membranes; 25 pM [125I]-RZ3; 25° C., 30 min; read-out: Ki ET-B
pKi: −log10 of the molar value.

- compound: "COc1cc(OC)nc(OC(C(=O)O)C(C)(Oc2ccc(C(C)C)cc2)c2ccccc2)n1 (stereo not shown)"
  pKi: 5.52
